Assay text: Solubility of compound by chemiluminescent nitrogen detection assay
Assay type: physicochemical

| Molecule | solubility kinetic |
| --- | --- |
| Cc1nc(NNC(=O)[C@H](CC2CCCC2)CN(O)C=O)c(F)c(N2CCN3CCOC[C@@H]3C2)n1 [LANOPEPDEN] | 241 µM |
| CCCNC(=O)[C@@H]1CCCNN1C(=O)[C@H](CC1CCCC1)CN(O)C=O | > 544 µM |
| O=CN(O)C[C@@H](CC1CCCC1)C(=O)N1NCCC[C@H]1C(=O)Nc1cccc2c1COB2O | > 544 µM |
| Cc1ccnc(NC(=O)[C@@H]2CCCNN2C(=O)[C@H](CC2CCCC2)CN(O)C=O)c1 | > 565 µM |
